Target: TYK2 (aa 871-1187, catalytic domain, GST-tag) (Homo sapiens, UniProt P29597)
Construct: JAK1 (aa 850-1154) and TYK2 (aa 871-1187) are expressed with an N-terminally fused GST-tag; GST (N); purchased Carna Biosciences, Inc; host or cells: baculovirus expression system
Sequence (P29597 871-1187): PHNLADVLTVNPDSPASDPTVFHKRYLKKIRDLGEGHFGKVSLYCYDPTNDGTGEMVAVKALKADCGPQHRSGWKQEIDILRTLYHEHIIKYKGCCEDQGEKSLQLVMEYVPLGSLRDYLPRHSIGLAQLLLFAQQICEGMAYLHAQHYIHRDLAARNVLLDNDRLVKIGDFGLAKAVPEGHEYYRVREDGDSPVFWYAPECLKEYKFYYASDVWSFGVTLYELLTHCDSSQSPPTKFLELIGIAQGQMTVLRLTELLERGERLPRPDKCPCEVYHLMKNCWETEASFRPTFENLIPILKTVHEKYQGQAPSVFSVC
Assay: JAK kinase assay (HTRF, phosphorylation of TK substrate-biotin), TYK2
Assay type: biochemical
Settings: HTRF assay, ATP at Km (13 μM); read-out: TYK2 kinase inhibitory activity (EC50 indicator)
Kindly state EC50 for each of the entries shown.

Answer for every listed entry: what is its EC50? The entries follow.
1. Cc1c[nH]c2ncnc(N3CCN(C(=O)C4(C#N)CC4)C4(CC4)C3)c12
2. CS(=O)(=O)c1ccc2[nH]c(C(=O)N3CCN(c4ncnc5[nH]ccc45)CC34CC4)cc2c1
3. O=C(c1ccc(-c2ccccc2)s1)N1CCN(c2ncnc3[nH]ccc23)CC12CC2
4. O=C(c1csc2ccccc12)N1CCN(c2ccnc3[nH]ccc23)CC12CC2

output:
["> 500 nM", "< 100 nM", "100 to 500 nM", "> 500 nM"]

These entries and their values trace back to patent US9346809B2.
